Assignment: determine reported pIC50 for the given compounds.
- Target: Peroxisome proliferator-activated receptor gamma (Homo sapiens, UniProt P37231)
- Sequence (P37231 whole entry): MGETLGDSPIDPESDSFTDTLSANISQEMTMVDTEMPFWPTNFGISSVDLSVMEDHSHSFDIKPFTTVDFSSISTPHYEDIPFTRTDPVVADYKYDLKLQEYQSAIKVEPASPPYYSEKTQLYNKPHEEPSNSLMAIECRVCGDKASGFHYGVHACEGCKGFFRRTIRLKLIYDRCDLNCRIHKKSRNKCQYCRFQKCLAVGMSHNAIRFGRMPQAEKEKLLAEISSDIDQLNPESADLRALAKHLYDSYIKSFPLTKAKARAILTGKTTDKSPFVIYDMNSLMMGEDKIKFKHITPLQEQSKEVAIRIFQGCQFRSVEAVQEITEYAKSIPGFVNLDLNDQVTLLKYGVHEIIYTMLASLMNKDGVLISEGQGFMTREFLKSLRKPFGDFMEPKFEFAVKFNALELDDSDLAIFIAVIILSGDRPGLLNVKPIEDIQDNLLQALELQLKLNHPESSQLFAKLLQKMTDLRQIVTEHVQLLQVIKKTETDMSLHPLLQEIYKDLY
- Assay explanation: Inhibition of human Peroxisome proliferator activated receptor gamma binding
pIC50: −log10 of the molar value.

Study these solved cases before continuing.
CCCc1c(OC(C)(C)C(=O)O)ccc2c(C(F)(F)F)noc12 | < 5.00
CCCc1cc2c(C(F)(F)F)noc2c(CCC)c1OC(C)C(=O)O (centres undefined) | < 5.00
CCCc1cc2c(C(F)(F)F)noc2c(CCC)c1OCC(C)(C)C(=O)O | < 4.82

Now examine the next entry.
## Task Param readout= pIC50; system= Peroxisome proliferator-activated receptor gamma (Homo sapiens, UniProt P37231); entry= CCCc1cc2c(C(F)(F)F)noc2c(CCC)c1OC(C)(CC)C(=O)O (centres undefined) ; returns value.
## Result < 4.82
